# measurementProtocol: AUC (0-24h) in cynomolgus monkey at 1 mg/kg, po
# Type: ADME, organism-based, Macaca fascicularis
# Parameters: time < 24 hr, dose 1 mg/kg, route oral
# testConditions: plasma
parameter: AUC(0-t) at 24 h (ng·h/mL)
Just the number in ng·h/mL, nothing appended.

Use these answered entries as a reference point.
smilesCode: C[C@H]1OC(=O)[C@@H]2C[C@@H]3C[C@H](O)CC[C@H]3[C@H](/C=C/c3ccc(-c4cccc(C(F)(F)F)c4)cn3)[C@H]12
unitOfMeasurement: ng·h/mL
AUC(0-t) at 24 h: 3060
--
smilesCode: C[C@H]1OC(=O)[C@@H]2C[C@@H]3CC(=O)CC[C@H]3[C@H](/C=C/c3ccc(-c4cccc(C(F)(F)F)c4)cn3)[C@H]12
unitOfMeasurement: ng·h/mL
AUC(0-t) at 24 h: 31

Below: the item to evaluate.
Entry C[C@H]1OC(=O)[C@@H]2C[C@@H]3C[C@@H](O)CC[C@H]3[C@H](/C=C/c3ccc(-c4cccc(C(F)(F)F)c4)cn3)[C@H]12 has what AUC(0-t) at 24 h? 73

====

# measurementProtocol: Inhibition of thrombin-stimulated [3H]thymidine incorporation in human CASMC
# Type: functional
parameter: Ki

Entry C[C@H]1OC(=O)[C@@H]2C[C@@H]3C[C@H](O)CC[C@H]3[C@H](/C=C/c3ccc(-c4cccc(C(F)(F)F)c4)cn3)[C@H]12 has what Ki? 22 nM
